// data source = patent US20100040598A1

experiment: Influence of food intake on absorption of clavulanic acid and amoxicillin (plasma pharmacokinetics after test tablet, Comparative Example A); assay type: in vivo, human; conditions: human, plasma, oral, amoxicillin in human plasma; one test tablet; at the beginning of a meal; read-out: tmax, mean value ± s (converted)
endpoint: Tmax

Req: Report Tmax for CC1(C)S[C@@H]2[C@H](NC(=O)[C@H](N)c3ccc(O)cc3)C(=O)N2[C@H]1C(=O)O [amoxicillin] please.
Resp: ~1.38 h

====

experiment: Influence of food intake on absorption of clavulanic acid and amoxicillin (plasma pharmacokinetics after test tablet, Comparative Example A); assay type: in vivo, human; settings: human, plasma, oral, amoxicillin in human plasma; one test tablet; at the beginning of a meal; read-out: Cmax, median
endpoint: Cmax (ng/mL)
Answer format: numeric, ng/mL implied, no suffix.

Req: Can you share its Cmax? I mean this molecule: CC1(C)S[C@@H]2[C@H](NC(=O)[C@H](N)c3ccc(O)cc3)C(=O)N2[C@H]1C(=O)O
Resp: 9870

====

experiment: Influence of food intake on absorption of clavulanic acid and amoxicillin (plasma pharmacokinetics after test tablet, Comparative Example A); format: in vivo, human; conditions: human, plasma, oral, amoxicillin in human plasma; one test tablet; fed conditions; read-out: tmax, mean value ± s (converted)
endpoint: Tmax (h)
// units = h; emit number, no label

Req: Using the record for CC1(C)S[C@@H]2[C@H](NC(=O)[C@H](N)c3ccc(O)cc3)C(=O)N2[C@H]1C(=O)O , report its Tmax.
Resp: 2.28

====

assay: Influence of food intake on absorption of clavulanic acid and amoxicillin (plasma pharmacokinetics after test tablet, Comparative Example A); type: in vivo, human; conditions: human, plasma, oral, clavulanic acid in human plasma; one test tablet; fasting conditions; read-out: AUC0→∞, median (converted)
endpoint: AUC(0-inf) (ng·h/mL)
Write the number in ng·h/mL without appending the unit.

Req: What value of AUC(0-inf) has been reported for the following compound? O=C(O)[C@H]1/C(=C/CO)O[C@@H]2CC(=O)N21
Resp: 3020

====

experiment: Influence of food intake on absorption of clavulanic acid and amoxicillin (plasma pharmacokinetics after test tablet, Comparative Example A); format: in vivo, human; details: human, plasma, oral, amoxicillin in human plasma; one test tablet; fed conditions; read-out: Cmax, median
endpoint: Cmax (ng/mL)
Report as a plain number; the unit ng/mL is understood.

Req: Value lookup for Cmax; key = CC1(C)S[C@@H]2[C@H](NC(=O)[C@H](N)c3ccc(O)cc3)C(=O)N2[C@H]1C(=O)O
Resp: 9830

====

Assay: Influence of food intake on absorption of clavulanic acid and amoxicillin (plasma pharmacokinetics after test tablet, Comparative Example A)
Type: in vivo, human
Details: human, plasma, oral, clavulanic acid in human plasma; one test tablet; fasting conditions; read-out: tmax, median (converted)
Experimental: An exploratory study involving 9 healthy volunteers receive the test product under fasted and fed conditions. […] Blood samples are taken before and 0.5, 1, 1.5, 2, 2.5, 3, 3.5, 4, 4.5, 5, 5.5, 6, 6.5, 7, 7.5, 8, 8.5, 9, 9.5, 10 and 12 hours after ingestion of the test tablet. […] Concentrations of both amoxicillin and clavulanic acid are determined according to known methods using a LC-MS/MS procedure (HPLC coupled Online with MS). […]
endpoint: Tmax (h)
Use h as the unit, but write only the number.

Req: GET /values?readout=Tmax&item= O=C(O)[C@H]1/C(=C/CO)O[C@@H]2CC(=O)N21
Resp: 1.5

====

Test: Influence of food intake on absorption of clavulanic acid and amoxicillin (plasma pharmacokinetics after test tablet, Comparative Example A)
Format: in vivo, human
Conditions: human, plasma, oral, amoxicillin in human plasma; one test tablet; fed conditions; read-out: Cmax, mean value ± s
Method: An exploratory study involving 9 healthy volunteers receive the test product under fasted and fed conditions. […] Blood samples are taken before and 0.5, 1, 1.5, 2, 2.5, 3, 3.5, 4, 4.5, 5, 5.5, 6, 6.5, 7, 7.5, 8, 8.5, 9, 9.5, 10 and 12 hours after ingestion of the test tablet. […] Concentrations of both amoxicillin and clavulanic acid are determined according to known methods using a LC-MS/MS procedure (HPLC coupled Online with MS). […]
endpoint: Cmax (ng/mL)
Field format: number, assumed ng/mL, no unit text.

Req: # input molecule: CC1(C)S[C@@H]2[C@H](NC(=O)[C@H](N)c3ccc(O)cc3)C(=O)N2[C@H]1C(=O)O ; wanted: its Cmax
Resp: 9880

====

assay: Influence of food intake on absorption of clavulanic acid and amoxicillin (plasma pharmacokinetics after test tablet, Comparative Example A); type: in vivo, human; settings: human, plasma, oral, amoxicillin in human plasma; one test tablet; at the beginning of a meal; read-out: Cmax, mean value ± s
endpoint: Cmax (ng/mL)
The figure you give is taken to be in ng/mL; do not add the unit.

Req: Endpoint output: Cmax of CC1(C)S[C@@H]2[C@H](NC(=O)[C@H](N)c3ccc(O)cc3)C(=O)N2[C@H]1C(=O)O [amoxicillin] . Value?
Resp: 10400

====

experiment: Influence of food intake on absorption of clavulanic acid and amoxicillin (plasma pharmacokinetics after test tablet, Comparative Example A); format: in vivo, human; details: human, plasma, oral, amoxicillin in human plasma; one test tablet; at the beginning of a meal; read-out: AUC0→∞, median (converted)
endpoint: AUC(0-inf) (µg·h/mL)
I only need the number, in µg·h/mL, no unit after it.

Req: Would you kindly share the measured AUC(0-inf) for CC1(C)S[C@@H]2[C@H](NC(=O)[C@H](N)c3ccc(O)cc3)C(=O)N2[C@H]1C(=O)O [amoxicillin] ?
Resp: 39.1

====

test: Influence of food intake on absorption of clavulanic acid and amoxicillin (plasma pharmacokinetics after test tablet, Comparative Example A); assay type: in vivo, human; details: human, plasma, oral, amoxicillin in human plasma; one test tablet; fasting conditions; read-out: Cmax, mean value ± s
endpoint: Cmax (ng/mL)
Quick reminder: number only, in ng/mL, skip the unit.

Req: # Cmax lookup, item CC1(C)S[C@@H]2[C@H](NC(=O)[C@H](N)c3ccc(O)cc3)C(=O)N2[C@H]1C(=O)O
Resp: 10300

====

assay: Influence of food intake on absorption of clavulanic acid and amoxicillin (plasma pharmacokinetics after test tablet, Comparative Example A); format: in vivo, human; conditions: human, plasma, oral, amoxicillin in human plasma; one test tablet; at the beginning of a meal; read-out: AUC0→∞, mean value ± s (converted)
endpoint: AUC(0-inf) (ng·h/mL)
The figure you give is taken to be in ng·h/mL; do not add the unit.

Req: Any idea what its AUC(0-inf) is? The compound is CC1(C)S[C@@H]2[C@H](NC(=O)[C@H](N)c3ccc(O)cc3)C(=O)N2[C@H]1C(=O)O
Resp: 40900

====

assay: Influence of food intake on absorption of clavulanic acid and amoxicillin (plasma pharmacokinetics after test tablet, Comparative Example A); format: in vivo, human; conditions: human, plasma, oral, clavulanic acid in human plasma; one test tablet; fed conditions; read-out: AUC0→∞, median (converted)
endpoint: AUC(0-inf)

Req: Entry O=C(O)[C@H]1/C(=C/CO)O[C@@H]2CC(=O)N21 has what AUC(0-inf)?
Resp: 2080 ng·h/mL

====

test: Influence of food intake on absorption of clavulanic acid and amoxicillin (plasma pharmacokinetics after test tablet, Comparative Example A); assay type: in vivo, human; conditions: human, plasma, oral, amoxicillin in human plasma; one test tablet; fasting conditions; read-out: Cmax, median
endpoint: Cmax (ng/mL)
Field: numeric (ng/mL). Do not append units.

Req: So what's the measured Cmax for this one? CC1(C)S[C@@H]2[C@H](NC(=O)[C@H](N)c3ccc(O)cc3)C(=O)N2[C@H]1C(=O)O [amoxicillin]
Resp: 10300

====

assay: Influence of food intake on absorption of clavulanic acid and amoxicillin (plasma pharmacokinetics after test tablet, Comparative Example A); format: in vivo, human; settings: human, plasma, oral, clavulanic acid in human plasma; one test tablet; fed conditions; read-out: Cmax, median
endpoint: Cmax (ng/mL)
Kindly answer with a numeric value in ng/mL, unit omitted.

Req: Bench note: what Cmax did O=C(O)[C@H]1/C(=C/CO)O[C@@H]2CC(=O)N21 show?
Resp: 830

====

experiment: Influence of food intake on absorption of clavulanic acid and amoxicillin (plasma pharmacokinetics after test tablet, Comparative Example A); format: in vivo, human; details: human, plasma, oral, amoxicillin in human plasma; one test tablet; fasting conditions; 9 volunteers; read-out: AUC0→∞, mean value ± s (converted)
endpoint: AUC(0-inf)
# include the unit after the value

Req: Need AUC(0-inf), item CC1(C)S[C@@H]2[C@H](NC(=O)[C@H](N)c3ccc(O)cc3)C(=O)N2[C@H]1C(=O)O
Resp: 30900 ng·h/mL

====

experiment: Influence of food intake on absorption of clavulanic acid and amoxicillin (plasma pharmacokinetics after test tablet, Comparative Example A); assay type: in vivo, human; settings: human, plasma, oral, clavulanic acid in human plasma; one test tablet; fasting conditions; read-out: Cmax, median
endpoint: Cmax (ng/mL)
Hi! Could you send only the number? It should be in ng/mL, unit omitted.

Req: What does the data say about its Cmax? Entry: O=C(O)[C@H]1/C(=C/CO)O[C@@H]2CC(=O)N21 [clavulanic acid]
Resp: 1350
